Assay: qHTS assay to test for compound auto fluorescence at 460 nm (blue) in HEK293 cell free culture (AID 720681)
Details: cell-free medium, autofluorescence 405/460 nm (blue); series mostly up to 46 µM
Excerpt: U.S. Tox21 Program National Center for Advancing Translational Sciences [NCATS] NIH Chemical Genomics Center [NCGC] U.S. Environmental Protection Agency [EPA] National Institutes of Environmental Health Sciences [NIEHS] National Toxicology Program [NTP] U.S. Food and Drug Administration [FDA] Tox21 Assay Overview: Compound auto fluorescence often interferes with screening of the compound library against various biological targets and signaling pathways. […] This assay includes the blue fluorescence data. […]
Calls of active or inactive are those of the source. Calls come from the whole dose curve; as a rule, active = well fitted curve in the direction sought with a large enough effect in the repeat runs; inconclusive = weak or mixed curves; inactive = flat fitted curve, though single readings scatter.
measure: outcome

CS(=O)(=O)OCC(O)C(O)COS(C)(=O)=O (stereo not drawn)	inactive
CC(O)[C@@H]1NC(=O)[C@H](CCCCN)NC(=O)[C@@H](Cc2c[nH]c3ccccc23)NC(=O)[C@H](Cc2ccccc2)NC(=O)[C@@H](NC(=O)[C@H](N)Cc2ccccc2)CSSC[C@@H](C(=O)N[C@H](CO)[C@@H](C)O)NC1=O (stereo partly drawn)	inactive
C=C1CC[C@H](O)CC1=C/C=C1\CCC[C@]2(C)[C@@H]([C@H](C)CC[C@@H](O)C(C)(C)O)CC[C@@H]12	inactive
